- Tested on: CEM cells HIV-1 protection, formazan growth assay
- measurement protocol: NCI AIDS Antiviral Assay
- conditions used: measured here: growth of uninfected CEM cells
Where a SMILES comes first, the peptide text is derived from it.

compound	IC50
O=c1c2c(c1=O)C1(SCCCS1)c1cc(Cl)ccc1O2	> 200 µM
CC(NC(=O)C(CCCCN)NC(=O)C(N)CC(=O)O)C(=O)NC(CO)C(=O)NC(Cc1ccc(O)cc1)C(=O)NC(CO)C(=O)NC(C(=O)NC(CC(N)=O)C(=O)NC(Cc1cnc[nH]1)C(=O)O)C(C)O (centres undefined) (H-DKASYSTNH-OH; configuration not given here)	> 49 µM
CO[C@H]1CC[C@@]2(C)C(CC[C@@]3(C)CC4=C[C@H]5C(C)(CO)C(=O)CCC5(C)[C@H]4CCC32)C1(C)C (some centres undefined)	> 100 µM
CC(C)(C)COC(=O)NC1CCC2CCCCC2C1 (centres undefined)	> 200 µM
CCC1=NC(C(F)(F)F)(C(F)(F)F)N=C(/N=C(/N)N(C)C(C(C)C)P(=O)(OC(C)C)OC(C)C)O1 (centres undefined)	> 200 µM
CC(=O)OCN(C)c1nc(N(C)COC(C)=O)nc(N(C)COC(C)=O)n1	> 50.1 µM
Cc1cc2nnn(C3CCCO3)c2cc1C (centres undefined)	> 200 µM
CC1=Nc2ccccc2S/C1=C1/C=NC(=NC#N)N=C1C(=O)Nc1cccc(Cl)c1	> 83.2 µM
COC1OC2COC(C)(C)OC2C(OC(C)=O)C1NC(=O)N(CCCl)N=O (centres undefined)	> 229 µM
[C-]#[N+]CS(=O)(=O)c1ccc(C)cc1	> 479 µM
O=C1NC(=O)C(SSC2C(=O)NC(=O)NC2=O)C(=O)N1	> 200 µM
C=C1CC[C@@H](O)[C@]2(C)CC[C@@H](C(C)(C)O)[C@@H](OC3OC(CO)C(O)C(O)C3O)C12 (some centres undefined)	> 288 µM
O=C(O)[C@@H]1CCCC[C@@H]1C(=O)N(C1CCCCC1)C1CCCCC1	> 77.6 µM
NC1=NN(c2ccccc2)C2(c3ccncc3C(=O)O)C1C(N)=NN2c1ccccc1 (centres undefined)	> 200 µM
CCOC(=O)C1(C(C)C)OC2CCCCCN2C1=O (centres undefined)	> 589 µM
N/N=C1/C(=O)N(c2ccc(Cl)cc2)C(=O)C(=O)C1c1nc2ccccc2s1 (centres undefined)	> 18.2 µM
Cc1ccc(N2C(=O)N(c3ccc(C)cc3)C3(Sc4ccccc4N3C)C2=O)cc1 (centres undefined)	> 12.6 µM
C(=C/c1nnnn1-c1ccccc1)/Nc1ccccc1	26.3 µM
c1ccc(CNc2ccc3[nH]c4cnccc4c3c2)cc1	36.3 µM
CCOC(=O)Cc1ccc(Nc2nc3cc(C(F)(F)F)ccc3nc2C(=O)OCC)cc1	> 100 µM
COc1ccc(C2NC3=C(CCCC3)C3(C#N)C(=O)N=C(N)C23C#N)cc1 (centres undefined)	107 µM
CCOC(=O)/C(C#N)=C\c1ccc([N+](=O)[O-])o1	> 1050 µM
O=C1CCCN(c2ccccc2)N1	> 1410 µM
CN(C)c1ncnc2c1ncn2C1C=CC(COS(N)(=O)=O)C1 (centres undefined)	> 200 µM

* * *

# key: entry, value: IC50
- Tested on: CEM cells HIV-1 protection, formazan growth assay
- measurement protocol: NCI AIDS Antiviral Assay
- conditions used: measured here: growth of uninfected CEM cells
- Procedure: The ability of compounds to protect human CEM cells from HIV-1 infection is measured as a screen for new compounds capable of inhibiting the HIV virus. Five concentrations of drug were tested on uninfected and infected cells and cell growth was measured using a soluble formazan assay. […] Compounds that provided at least 50% protection were retested. Compounds that provided at least 50% protection on retest were listed as moderately active. […]
assay readout: IC50

> print(dat)
                                    molecule  reported.value
 1                O/N=C\c1c2c(cc3c1CCC3)CCC2        > 200 µM
 2  Cc1cn2c(nc1=O)OC1C(O)C(CCl)OC12 (stereo not drawn)        > 200 µM
 3  COC(=O)/C(=C\C(=O)c1ccc(Br)cc1)NN=C(c1ccccc1)c1ccccc1        > 200 µM
 4            O=c1scc(-c2ccc(C(F)(F)F)cc2)s1       > 85.1 µM
 5  O=c1c(OC2OC(CO)C(O)C(O)C2OC2OCC(O)(CO)C2O)c(-c2ccc(O)cc2)oc2cc(O)cc(O)c12 (stereo not drawn)       > 42.7 µM
 6  O=c1ccn2c(n1)OC1C(O)C(CO)OC12 (stereo not drawn)        > 200 µM
 7  O=C(CC(=O)N1CCN(c2ccccn2)CC1)N1CCN(c2ccccn2)CC1       > 97.7 µM
 8  CCCCCCCCNC(=O)C1=C(C)NC(C)=C(C(=O)NCCCCCCCC)C1         97.7 µM
 9  O=C(NCCCCCCCCNC(=O)c1cc(O)c(O)c(O)c1)c1cc(O)c(O)c(O)c1         13.8 µM
10          Cn1c(=O)ccc2c1nc1ccccc1[n+]2[O-]       > 60.3 µM
11  COC(=O)CCC(C)C1CCC2C3=CC(=O)C4CC(OC(C)=O)CCC4(C)C3CC(OC(C)=O)C21C (stereo not drawn)         37.2 µM
12  O=C1CC2CC(=O)CC2(C2CC=CC2)C1 (stereo not drawn)        > 245 µM
13  CC(C)c1ccc(C2C3=C(N=C4SCC(=O)N42)C(=O)c2ccccc23)cc1 (stereo not drawn)       > 13.8 µM

# credit: PubChem BioAssay AID179
